From: patent US20210386729A1

# assay-protocol: Single oral dose plasma pharmacokinetics in healthy subjects
# Type: in vivo, human
# reported-conditions: human, 100 ug; healthy subjects, single oral dose 100 μg, fasted, plasma; mean; read-out: T1/2 (converted)
parameter: half-life (h)
One number for each entry, in h.

Request: Entry under review: O=C(O)c1cc(F)c2nc(N3C4CC[C@H]3CC(OCc3c(-c5ccccc5OC(F)(F)F)noc3C3CC3)C4)sc2c1 (stereo partly shown) [Compound A] . Reported half-life?
Response: 13.5

###

# assay-protocol: Multiple oral dose plasma pharmacokinetics in healthy subjects
# Type: in vivo, human
# reported-conditions: human, plasma, oral, 30 ug, healthy subjects, 30 μg qd, Day 1, plasma; median; read-out: Tmax
parameter: Tmax
In your response, the unit should come after the numeric value.

Request: Could you share which Tmax value was measured for O=C(O)c1cc(F)c2nc(N3C4CC[C@H]3CC(OCc3c(-c5ccccc5OC(F)(F)F)noc3C3CC3)C4)sc2c1 (stereo partly shown) ?
Response: 6 h
